The molecules listed here are annotated with their GFP response relative to DMSO.
Assay: LAP4-GFP expression modulators in yeast, confirmation, cell-based, cherry picks, flow cytometry, mother/daughter gates (AID 2271);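 further: ratio of sample to DMSO plate mean so 100% equals DMSO level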
Details: S. cerevisiae LAP4-GFP strain, 3 h, measured here: daughter cell gate response, at 10 µM, stronger effect = higher value, 100 means same as DMSO control
The answer is to be given in %; state only the numeric part.

The reported value for COc1ccc(OC)c(C2CC(c3c(-c4ccccc4)c4cc(Cl)ccc4[nH]c3=O)=NN2S(C)(=O)=O)c1 (stereo not given) in terms of GFP response relative to DMSO is 92.5

The reported value for COc1ccc(N2C(=O)C(Cl)=C(N(CCO)Cc3ccccc3)C2=O)cc1 in terms of GFP response relative to DMSO is 99.1

The reported value for CCN(CC)CCN(C(=O)c1ccc2c(c1)CCCC2)c1nc2cc(OC)c(OC)cc2s1 in terms of GFP response relative to DMSO is 99.3

The reported value for CCc1nn2c(N3CCOCC3)cc(C)nc2c1-c1ccc(F)cc1 in terms of GFP response relative to DMSO is 104

The reported value for CC(C)C(=O)Nc1ccc(NC(=O)c2cc3ccccc3o2)cc1 in terms of GFP response relative to DMSO is 101

The reported value for CCc1noc(C)c1C(=O)Nc1nc(-c2ccc(Cl)cc2Cl)c(C)s1 in terms of GFP response relative to DMSO is 99.3

The reported value for COc1cc(C)c(C)cc1S(=O)(=O)N1CCCCC1c1cccnc1 (stereo not given) in terms of GFP response relative to DMSO is 105

The reported value for C=CCn1c(C)c(/C=C/c2cc[n+](C)cc2)c2ccccc21 in terms of GFP response relative to DMSO is 136

The reported value for O=C(N/N=C/c1ccccc1Cl)c1ccc(F)cc1 in terms of GFP response relative to DMSO is 104

The reported value for CC(=O)Nc1ccc(-c2csc(NC(=O)c3ccc(C)o3)n2)cc1 in terms of GFP response relative to DMSO is 99.2

The reported value for CCN(CC)c1ccc2cc(-c3nc4ccccc4[nH]3)c(=O)oc2c1 in terms of GFP response relative to DMSO is 99.3

The reported value for O=C(COc1ccc(F)cc1Cl)Nc1nc(-c2ccccn2)cs1 in terms of GFP response relative to DMSO is 132

The reported value for Oc1ccc2ccccc2c1N=Nc1nccs1 in terms of GFP response relative to DMSO is 151

The reported value for Cc1cc(OCC(=O)Nc2ccc(S(=O)(=O)N3CCN(C)CC3)cc2)ccc1Br in terms of GFP response relative to DMSO is 99

The reported value for CC1CCc2c(C(=O)NCc3cccnc3)csc2C1 (stereo not given) in terms of GFP response relative to DMSO is 109

The reported value for Cc1ccc(-c2csc(NC(=O)c3ccno3)n2)cc1 in terms of GFP response relative to DMSO is 99.1

The reported value for Cc1cc(C)n2nc(C(=O)NC(c3ccccc3)c3ccccc3)nc2n1 in terms of GFP response relative to DMSO is 99.7

The reported value for Cc1cccc(CN2CCSc3sccc3C2=O)c1 in terms of GFP response relative to DMSO is 127

The reported value for Oc1ccc(Cl)cc1-c1cc(-c2ccco2)[nH]n1 in terms of GFP response relative to DMSO is 94.1

The reported value for Cc1ccc(-n2nc(C)c3c(C)c(CCC(=O)O)c(C)nc32)cc1 in terms of GFP response relative to DMSO is 101

The reported value for CCn1c(=O)c(C(C)=O)c(O)c2ccccc21 in terms of GFP response relative to DMSO is 87.7

The reported value for COc1cc(/C=C/C(=O)c2c(O)cc(C)oc2=O)cc(OC)c1O in terms of GFP response relative to DMSO is 104
